test system: HT55; test: cells; parameters: CellTiter-Glo 2.0 luminescence proliferation/viability assay, single agents, human tumour cell line panel; conditions: Homo sapiens, HT55, 96 h; single agent; read-out: IC50 SMACm
Outcome measure: IC50 (µM)

>>> print(df.to_string())
                         chemical_structure  outcome_measure  reported_value
0  CN[C@@H](C)C(=O)Nc1ccc(-c2c(-c3cccnc3OC)nc3cc(C)ccn23)c(C#Cc2ccc3c(C)nccc3c2)n1             IC50               5

----------
system: SNU1235; experiment: cells; design: CellTiter-Glo 2.0 luminescence proliferation/viability assay, single agents, human tumour cell line panel; conditions: 96 h; single agent; read-out: IC50 SMACm
Outcome measure: IC50 (µM)

                                   compound      tgt  outcome_measure  measurement_unit  reported_value
0  CN[C@@H](C)C(=O)Nc1ccc(-c2c(-c3cccnc3OC)nc3cc(C)ccn23)c(C#Cc2ccc3c(C)nccc3c2)n1 [SMACm, BI 891065]  SNU1235             IC50                µM            2.14
